Ok so here's the combined literature set: IC50 for human ACC2 (Homo sapiens (Human), UniProt O00763).
measurementType: IC50 (nM)

// below: answered compounds
| compound | studySystem | IC50 (nM) |
| --- | --- | --- |
| CC(C(=O)NCCF)c1ccc(O[C@@H]2CCN(c3nc(N(C)C)ncc3F)C2)cc1 (some centres unmarked) | human ACC2 (Homo sapiens (Human), UniProt O00763) | 512 |
| CCOc1ccc(C#Cc2ccc(CC(C)NC(=O)CN(C)C)cc2)cc1 (centres unmarked) | human ACC2 (Homo sapiens (Human), UniProt O00763) | 1100 |
| CCNC(=O)C(C)c1ccc(C#Cc2cnc(NC3CC3)nc2)cc1 (centres unmarked) | human ACC2 (Homo sapiens (Human), UniProt O00763) | 390 |
| CCOc1ccc(C#Cc2ccc(C(C)C(N)=O)cc2)cc1 (centres unmarked) | human ACC2 (Homo sapiens (Human), UniProt O00763) | 220 |
| CC(=O)N[C@@H](C)c1ccc(CN2CCc3c(cccc3C(F)(F)F)C2)cc1 | human ACC2 (Homo sapiens (Human), UniProt O00763) | 104 |
| CCCC(=O)NC(C)Cc1ccc(C2CN(c3ccc(OCC4CC4)cc3)C2)cc1 (centres unmarked) | human ACC2 (Homo sapiens (Human), UniProt O00763) | 3070 |
| CC(=O)NC(C)Cc1ccc(C#Cc2ccnc(Oc3ccccc3)c2)cc1 (centres unmarked) | human ACC2 (Homo sapiens (Human), UniProt O00763) | 150 |
| CC(Cc1ccc(C#Cc2ccc(Oc3cncnc3)cc2)cc1)NC(=O)C1CC1 (centres unmarked) | human ACC2 (Homo sapiens (Human), UniProt O00763) | 1400 |
| CCCOc1cc(N2CC(c3ccc(CC(C)NC(C)=O)cc3)C2)ccn1 (centres unmarked) | human ACC2 (Homo sapiens (Human), UniProt O00763) | 610 |
| Cc1cc(OC2CC2)ccc1N1CC[C@@H](Oc2ccc([C@H](C)NC(=O)c3cnco3)cc2)C1 | human ACC2 (Homo sapiens (Human), UniProt O00763) | 397 |

1. COCCOc1ccc(C#Cc2ccc(CC(C)NC(C)=O)cc2)cc1 (centres unmarked)
2. CC(=O)N[C@@H](C)c1ccc(O[C@@H]2CCN(c3ccnc(OCCO)c3F)C2)cc1
Which shows the larger IC50 value: 1 or 2 ? Mark your answer with the label of the selected entry.
2

A. COC(=O)NC(C)Cc1ccc(C#Cc2cnc(NC(C)C)nc2)cc1 (centres unmarked)
B. CC(=O)NC(C)Cc1ccc(C#Cc2ccnc(N3CCC(C)(C)C3)n2)cc1 (centres unmarked)
Just curious, which one has the larger IC50 reading, A or B ? Your answer should be the label attached to the chosen record.
A

---

Literature compilation of IC50 measurements on human ACC2 (Homo sapiens (Human)).
measurementType: IC50 (nM)

| molecule | IC50 / nM |
| --- | --- |
| COCCOc1cc(C#Cc2ccc(CC(C)NC(C)=O)cc2)ccn1 (centres unmarked) | 980 |
| CCOc1ccc(N2CCC(c3ccc(C(C)C(=O)NC4CC4)cc3)CC2)c(C#N)c1 (centres unmarked) | 140 |
| CCNC(=O)C(C)c1ccc(C#Cc2ccc(COC)cc2)cc1 (centres unmarked) | 10900 |
| CN(c1nccc(N2CCC(c3ccc(CC(N)=O)cc3)CC2)n1)C1CCCC1 | 1260 |
| CCOc1ccc(C#Cc2ccc(CC(C)NC(=O)C3(C#N)CC3)cc2)cc1 (centres unmarked) | 920 |

A. CCOc1ccc(N2CC(c3ccc(C(C)NC(C)=O)cc3)C2)cc1 (centres unmarked)
B. CC(=O)N[C@@H](C)c1ccc(O[C@@H]2CCN(c3ccnc(OCCC4CC4)c3)C2)cc1
Which record would sort first by descending IC50, A or B ? Give the chosen item's label as your response.
A
(A: 1130 nM, B: 75 nM)

---

pIC50 for human ACC2 (Homo sapiens (Human), UniProt O00763) - collated from the literature.
pIC50: −log10 of the molar value.
measurementType: pIC50

Worked set:
| compound | studySystem | measurementType | assayResult |
| --- | --- | --- | --- |
| CC(=O)Nc1cc(C(=O)N[C@@H](C)c2ccc(C3CN(c4ccc5c(c4)OCCO5)C3)cc2)ccn1 | human ACC2 (Homo sapiens (Human), UniProt O00763) | pIC50 | 5.62 |
| CC(=O)N[C@@H](C)c1ccc(OC2CCN(c3ccc(OC4CCC4)cn3)C2)cc1 (some centres unmarked) | human ACC2 (Homo sapiens (Human), UniProt O00763) | pIC50 | 6.94 |
| C[C@H](NC(=O)C1(C)CC1)c1ccc(O[C@@H]2CCN(c3ccc(OCC4CC4)cc3)C2)cc1 | human ACC2 (Homo sapiens (Human), UniProt O00763) | pIC50 | 7.10 |
| CCOc1ccc(N2CCC(Oc3ccc([C@H](C)NC(C)=O)cc3)C2)cc1 (some centres unmarked) | human ACC2 (Homo sapiens (Human), UniProt O00763) | pIC50 | 6.70 |
| CC(=O)NC(C)c1ccc(OC2CCN(c3ccc(OCC4CC4)cc3)C2)cc1F (centres unmarked) | human ACC2 (Homo sapiens (Human), UniProt O00763) | pIC50 | 6.12 |

a. CC(=O)NC(C)Cc1ccc(C2CN(c3cnc(NC4CCC4)nc3)C2)cc1 (centres unmarked)
b. CCNC(=O)C(C)c1ccc(O[C@@H]2CCN(c3cccc(OC(C)CC)c3)C2)cc1 (some centres unmarked)
c. COC[C@@H]1CCCN1c1cccc(N2CC[C@@H](Oc3ccc([C@H](C)NC(C)=O)cc3)C2)n1
d. C[C@H](NC(=O)c1cnco1)c1ccc(OC2CCN(c3ccc(OCC4CC4(F)F)cn3)C2)cc1 (some centres unmarked)
e. CCCN(C)C(=O)c1ccc(C#Cc2ccc(CC(C)NC(C)=O)cc2)cc1 (centres unmarked)
Your job: order these 5 records by pIC50, ascending. Output the labels ranked as instructed.
a, e, b, c, d
(a: 5.25, e: 5.96, b: 6.20, c: 6.76, d: 7.37)

P. CC(=O)N[C@@H](C)c1ccc(C#Cc2cnc(NCCC(F)(F)F)nc2)cc1
Q. Cc1ccc(-c2ccc(Cl)cc2)cc1C1=C(O)[C@]2(CC[C@H](C)CC2)NC1=O
Between P and Q , which one shows the larger pIC50 value? Let me know the label of the one you choose.
Q
(Q: 6.63, P: 5.44)

I. CC(=O)NC(C)c1ccc(OC2CCN(c3ccc(OCC4CC4)cc3)C2)c(F)c1 (centres unmarked)
II. CCCOc1ncc(C#Cc2ccc(CC(C)NC(=O)OC)cc2)cn1 (centres unmarked)
III. COC(=O)NC(C)Cc1ccc(C#Cc2cnc(N3CCC3)nc2)cc1 (centres unmarked)
Kindly order the items shown according to pIC50, from the highest value down. Ranked list of labels, please, in the requested order.
I, II, III
(I: 6.70, II: 6.00, III: 5.66)

---

Let's look at some IC50 data for human ACC2 (Homo sapiens (Human), UniProt O00763) that I collected from the literature.
measurementType: IC50 (nM)

| molecule | studySystem | resultUnits | IC50 |
| --- | --- | --- | --- |
| CC(=O)NC(C)c1ccc(OC2CCN(c3ccc(OCC4CC4)cc3)C2)nc1 (centres unmarked) | human ACC2 (Homo sapiens (Human), UniProt O00763) | nM | 298 |

A. CCOc1ccc(C#Cc2ccc(CC(=O)N(C)C)cc2)cc1
B. COc1c(OCCC2CC2)ccc2c1CCN(Cc1ccc([C@H](C)NC(C)=O)cc1)C2
C. COCCNC(=O)c1cccc(C#Cc2ccc(CC(C)NC(C)=O)cc2)c1 (centres unmarked)
Order field: IC50 | Direction: descending (largest first) Response format: the labels, sorted as the prompt asks.
A, C, B
(A: 30000 nM, C: 11100 nM, B: 40 nM)

---

// merged dataset of IC50 values, system = human ACC2 (Homo sapiens (Human), UniProt O00763), multiple refs
measurementType: IC50 (nM)

Before answering, review these 2 worked examples.
| compound | IC50, nM |
| --- | --- |
| CO[C@H]1CC[C@]2(CC1)NC(=O)C(c1c(C)cc(C)c(-c3ccc(F)cc3)c1C)=C2O | 669 |
| COC(=O)NC(C)Cc1ccc(C#Cc2cnc(NCCF)nc2)cc1 (centres unmarked) | 4500 |

A. CC(=O)NCCC[C@H]1OC[C@H](Oc2ncc(OC(C)C)cc2Cl)CO1
B. CC(Cc1ccc(C2CN(c3ccc(OCC4CC4)cc3)C2)cc1)NC(=O)C1(C#N)CC1 (centres unmarked)
A or B : whose IC50 is greater? Kindly state the label of the option you pick.
B

a. CCC(C)Nc1ncc(C#Cc2ccc(CC(C)NC(=O)C3CC3)cc2)cn1 (centres unmarked)
b. CCNc1ncc(C#Cc2ccc(CC(C)NC(C)=O)cc2)cn1 (centres unmarked)
c. CC(=O)N[C@@H](C)c1ccc(CN2CCc3cc(OCC4CC4(F)F)ccc3C2)cc1 (some centres unmarked)
Ascending by IC50, please: list the compounds accordingly. The response must list the labels following the requested ordering.
c, b, a
(c: 26 nM, b: 230 nM, a: 1500 nM)
